- SYSTEM UNDER TEST: human ether-à-go-go-related gene (hERG) potassium channel (human, UniProt Q12809);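 also: peak tail current of the secondary pulse compared with the same well before compound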
- Sequence (Q12809 whole entry, looked up): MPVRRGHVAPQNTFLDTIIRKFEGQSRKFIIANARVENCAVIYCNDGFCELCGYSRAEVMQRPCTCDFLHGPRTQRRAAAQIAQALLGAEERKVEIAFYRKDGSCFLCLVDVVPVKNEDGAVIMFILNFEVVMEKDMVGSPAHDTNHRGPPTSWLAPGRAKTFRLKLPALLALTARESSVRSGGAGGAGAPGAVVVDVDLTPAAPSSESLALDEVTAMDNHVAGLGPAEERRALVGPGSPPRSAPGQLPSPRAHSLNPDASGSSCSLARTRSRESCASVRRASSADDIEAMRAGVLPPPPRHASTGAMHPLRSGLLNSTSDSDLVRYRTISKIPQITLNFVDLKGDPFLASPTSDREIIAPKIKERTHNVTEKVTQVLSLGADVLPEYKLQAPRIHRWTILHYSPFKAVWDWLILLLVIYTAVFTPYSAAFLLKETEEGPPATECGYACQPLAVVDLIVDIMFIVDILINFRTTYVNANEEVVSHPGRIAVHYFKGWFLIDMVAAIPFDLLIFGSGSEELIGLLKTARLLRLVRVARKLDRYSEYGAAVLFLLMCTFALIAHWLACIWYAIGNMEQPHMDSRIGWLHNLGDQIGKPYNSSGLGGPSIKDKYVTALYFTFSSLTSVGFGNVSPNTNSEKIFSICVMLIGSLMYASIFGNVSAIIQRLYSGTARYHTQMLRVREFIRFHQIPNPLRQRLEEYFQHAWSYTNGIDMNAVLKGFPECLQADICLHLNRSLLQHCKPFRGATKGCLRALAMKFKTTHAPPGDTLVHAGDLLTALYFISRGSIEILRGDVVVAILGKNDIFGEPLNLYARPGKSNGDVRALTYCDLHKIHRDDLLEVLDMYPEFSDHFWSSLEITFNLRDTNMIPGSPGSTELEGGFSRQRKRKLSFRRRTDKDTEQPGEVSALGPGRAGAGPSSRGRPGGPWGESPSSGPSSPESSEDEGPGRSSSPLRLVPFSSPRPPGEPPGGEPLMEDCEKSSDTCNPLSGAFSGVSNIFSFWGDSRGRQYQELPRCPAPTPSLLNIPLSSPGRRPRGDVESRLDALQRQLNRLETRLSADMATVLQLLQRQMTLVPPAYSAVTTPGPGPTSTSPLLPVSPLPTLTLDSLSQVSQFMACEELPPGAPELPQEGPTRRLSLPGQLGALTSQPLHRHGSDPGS
- TEST PROTOCOL: primary screen, population patch clamp on CHO cells stably expressing hERG; higher = less effect of the substance
In all, about 310,000 compounds went through this assay and about 14,000 (4.5%) showed an effect of 50% or more. The effect is printed as a negative number. The entries come from a sample that favours strong results as a whole.
QUANTITY NAME: hERG current change (%, negative = inhibition) at 10uM

Field request: hERG current change (%, negative = inhibition) at 10uM | item: Cc1csc(N2CCCC2c2nc3cc(Cl)c(N4CCCCC4)cc3n2CCOCCO)n1 (centres unmarked)
-47.3%

Field request: hERG current change (%, negative = inhibition) at 10uM | item: "COCCN1Cc2cccc(C(=O)Nc3cccnc3)c2C1=O"
-32.6%

Field request: hERG current change (%, negative = inhibition) at 10uM | item: "Cc1cc(NC(=O)c2ccc(Br)c(S(=O)(=O)N3CCCC3)c2)no1"
0.115%

Field request: hERG current change (%, negative = inhibition) at 10uM | item: "Cc1cccc2sc(N(CCCN(C)C)C(=O)CN3C(=O)c4ccccc4C3=O)nc12.Cl"
-11.2%

Field request: hERG current change (%, negative = inhibition) at 10uM | item: "COc1ccc(NC(=O)CCC(=O)c2ccc(C(C)C)cc2)cc1"
27.7%
